# credit: patent US20230233569A1

- Target: KRAS G12S (Homo sapiens, UniProt P01116+P62937, G12S)
- Sequence (P01116 1-169 isoform P01116-2 G12S limits assumed): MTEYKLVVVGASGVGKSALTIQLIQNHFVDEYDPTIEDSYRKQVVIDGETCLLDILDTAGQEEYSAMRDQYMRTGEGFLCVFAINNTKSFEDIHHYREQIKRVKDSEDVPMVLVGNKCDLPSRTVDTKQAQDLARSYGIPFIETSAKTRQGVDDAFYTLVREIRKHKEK
- Sequence (P62937 whole entry): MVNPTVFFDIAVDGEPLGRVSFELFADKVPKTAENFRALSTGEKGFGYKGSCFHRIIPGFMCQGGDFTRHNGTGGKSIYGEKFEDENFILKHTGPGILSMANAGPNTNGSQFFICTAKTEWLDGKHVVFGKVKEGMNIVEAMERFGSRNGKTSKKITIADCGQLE
- Procedure text: Ras-Raf disruption / FRET / MOA assay (BRAF RBD)
- Format: biochemical
- Measurement context: Ras-Raf disruption, with Cyclophilin A; read-out: KRAS G12S FRET data IC50
Measurement label: IC50

input: Which IC50 is reported for this molecule? CCn1c(-c2cnccc2COC)c2c3cc(ccc31)-c1cccc(c1)C[C@H](NC(=O)[C@H](C(C)C)N(C)C(=O)CCN=C=NCc1ccc(OC)cc1)C(=O)N1CCC[C@H](N1)C(=O)OCC(C)(C)C2 [18 A and B]
output: > 10000 nM

input: Which IC50 is reported for this molecule? CCn1c(-c2cccnc2[C@H](C)OC)c2c3cc(ccc31)-c1csc(n1)C[C@H](NC(=O)[C@H](C(C)C)N(C)C(=O)N1CCN(C(=O)[C@@H]3CN3)[C@@H](C)C1)C(=O)N1CCC[C@H](N1)C(=O)OCC(C)(C)C2 [Example 298]
output: 10 to 100 nM

input: Which IC50 is reported for this molecule? CCn1c(-c2cccnc2[C@H](C)OC)c2c3cc(ccc31)-c1cc(O)cc(c1)C[C@H](NC(=O)[C@H](C(C)C)N(C)C(=O)c1ccc(NC(=O)[C@@H]3CN3)cn1)C(=O)N1CCC[C@H](N1)C(=O)OCC(C)(C)C2 (atropisomer, axis not shown) [Example 187]
output: 100 to 1000 nM

input: Which IC50 is reported for this molecule? CCn1c(-c2cccnc2[C@H](C)OC)c2c3cc(ccc31)-c1cc(O)cc(c1)C[C@H](NC(=O)[C@H](C(C)C)N(C)C(=O)[C@H]1C[C@H](NC(=O)[C@@H]3CN3)C1)C(=O)N1CCC[C@H](N1)C(=O)OCC(C)(C)C2 [Example 167]
output: 10 to 100 nM

input: Which IC50 is reported for this molecule? CCn1c(-c2cccnc2[C@H](C)OC)c2c3cc(ccc31)-c1cc(O)cc(c1)C[C@H](NC(=O)[C@@H](COC1CCN(C(=O)[C@H]3CN3)CC1)C(C)C)C(=O)N1CCC[C@H](N1)C(=O)OCC(C)(C)C2 (atropisomer, axis not shown) [Example 211]
output: 1000 to 10000 nM

input: Which IC50 is reported for this molecule? CCn1c(-c2cnccc2COC)c2c3cc(ccc31)-c1cccc(c1)C[C@H](NC(=O)[C@H](C(C)C)N(C)C(=O)C1CCC(N=C=Nc3ccc(OC)cc3)C1)C(=O)N1CCC[C@H](N1)C(=O)OCC(C)(C)C2 (stereo partly shown) [71 A and B]
output: > 10000 nM

input: Which IC50 is reported for this molecule? CCn1c(-c2cccnc2[C@H](C)OC)c2c3cc(ccc31)-c1cc(O)cc(c1)C[C@H](NC(=O)[C@H](C(C)C)N(C)C(=O)c1ccc([C@@H]3CN3)cc1)C(=O)N1CCC[C@H](N1)C(=O)OCC(C)(C)C2 [Example 131]
output: 100 to 1000 nM

input: Which IC50 is reported for this molecule? CCn1c(-c2cccnc2[C@H](C)OC)c2c3cc(ccc31)-c1cc(O)cc(c1)C[C@H](NC(=O)[C@H](C(C)C)N(C)C(=O)[C@@H]1CCN(C(=O)[C@@H]3CN3)C1)C(=O)N1CCC[C@H](N1)C(=O)OCC(C)(C)C2 [Example 172]
output: 10 to 100 nM

input: Which IC50 is reported for this molecule? CCn1c(-c2cccnc2[C@H](C)OC)c2c3cc(ccc31)-c1cc(O)cc(c1)C[C@H](NC(=O)[C@H](C(C)C)N1CCC3(CCN(C(=O)[C@H]4CN4)C3)C1=O)C(=O)N1CCC[C@H](N1)C(=O)OCC(C)(C)C2 (stereo partly shown) [Example 59]
output: 10 to 100 nM

input: Which IC50 is reported for this molecule? CCn1c(-c2cccnc2[C@H](C)OC)c2c3cc(ccc31)-c1cc(O)cc(c1)C[C@H](NC(=O)[C@H](C(C)C)N(C)C(=O)[C@@]1(F)CCN(C(=O)[C@H]3CN3)C1)C(=O)N1CCC[C@H](N1)C(=O)OCC(C)(C)C2 [Example 171]
output: 10 to 100 nM

input: Which IC50 is reported for this molecule? CCn1c(-c2cccnc2[C@H](C)OC)c2c3cc(ccc31)-c1cc(O)cc(c1)C[C@H](NC(=O)[C@H](C(C)C)N(C)C(=O)c1nc(NC(=O)[C@H]3CN3)cs1)C(=O)N1CCC[C@H](N1)C(=O)OCC(C)(C)C2 (atropisomer, axis not shown) [Example 212]
output: 100 to 1000 nM

input: Which IC50 is reported for this molecule? CCn1c(-c2cccnc2[C@H](C)OC)c2c3cc(ccc31)-c1cc(O)cc(c1)C[C@H](NC(=O)[C@H](C(C)C)N(C)C(=O)N1CCN(C(=O)[C@H]3CN3)C(=O)C1)C(=O)N1CCC[C@H](N1)C(=O)OCC(C)(C)C2 [Example 143]
output: 10 to 100 nM

input: Which IC50 is reported for this molecule? CCn1c(-c2cccnc2[C@H](C)OC)c2c3cc(ccc31)-c1cccc(c1)C[C@H](NC(=O)[C@H](C(C)C)N(C)C(=O)[C@H]1CC[C@H](N=C=NC(C)(C)C)C1)C(=O)N1CCC[C@H](N1)C(=O)OCC(C)(C)C2 [Example 125]
output: > 10000 nM

input: Which IC50 is reported for this molecule? CCn1c(-c2cccnc2[C@H](C)OC)c2c3cc(ccc31)-c1cc(O)cc(c1)C[C@H](NC(=O)[C@H](C(C)C)N(C)C(=O)[C@]1(F)CCN(C(=O)[C@@H]3CN3)C1)C(=O)N1CCC[C@H](N1)C(=O)OCC(C)(C)C2 (atropisomer, axis not shown) [Example 184]
output: 100 to 1000 nM

input: Which IC50 is reported for this molecule? CCn1c(-c2cnccc2COC)c2c3cc(ccc31)-c1cccc(c1)C[C@H](NC(=O)[C@H](C(C)C)N(C)C(=O)CCN=C=NC(C)(C)C)C(=O)N1CCC[C@H](N1)C(=O)OCC(C)(C)C2 [79 A and B]
output: > 10000 nM

input: Which IC50 is reported for this molecule? CCn1c(-c2cnccc2COC)c2c3cc(ccc31)-c1cccc(c1)C[C@H](NC(=O)[C@H](C(C)C)N(C)C(=O)CCN=C=NCCCN1CCOCC1)C(=O)N1CCC[C@H](N1)C(=O)OCC(C)(C)C2 [17 A and B]
output: > 10000 nM
